Known % Inhibition of lesion of dermal Arthus reaction of a selection of molecules
- System: dermal Arthus reaction (Type III hypersensitivity)
- testProtocol: reverse passive Arthus assay (Carter and Krause)
- Format: in vivo, rats (male Sprague-Dawley)
- testContext: 100 mg/kg, oral, 30 min before intradermal AntiB.S.A.; lesion after 4 hours; 4 rats per group
Counter-ions that a name gives are not always drawn.
valueType: % Inhibition of lesion of dermal Arthus reaction (%)

molecule | readingUnit | reportedResult
N#CCCN(N)c1nc(-c2ccccc2)c(-c2ccccc2)o1 [hydrochloride] | % | 40
Cl.N#CCCN(N)c1nc(-c2ccccc2)co1 | % | 59
Cc1nc(N(N)CCC#N)oc1C.Cl | % | 38
Cl.N#CCCN(N)c1ncco1 | % | 42

Hello, the source for this data is patent US4489084A, in case you need it.
